System: TK-10 renal
Experiment: NCI-60 one-dose screen, 48 h (100 = growth as untreated, 0 = no growth, -100 = all killed)
Settings: 10 µM unless noted
The panel holds about 83,000 compounds, 20% with a hit somewhere; the sample as a whole holds those more often.
Returns yes (1) if the recorded growth is greater than or equal to 50%, and no (0) otherwise.

COMPOUND	SYSTEM_NAME	CLASS
NC(=Nc1ccc(OCCCCCCCCn2cnnn2)cc1)c1ccccc1	TK-10 renal	yes (1)
COc1ccc2[nH]c(=O)cc(-n3ncc(C(=O)/C=C/c4cc(OC)c(OC)c(OC)c4)c3C)c2c1	TK-10 renal	no (0)
CCN1C(=O)N(CC)C2NNC(Sc3c(C(=O)O)c4ccccc4n(CC(C)C)c3=O)=NC21 (configuration not stated)	TK-10 renal	yes (1)
COC(=O)c1c(C(=O)OC)c2ccc3c4ccccc4ccc3n2c1C(=O)OC	TK-10 renal	yes (1)
CN(C)c1nc(NCCNS(=O)(=O)c2ccc(C(=O)/C=C/c3ccccc3)cc2)nc(N2CCOCC2)n1	TK-10 renal	yes (1)
O=C(N/N=C/c1occc1Br)c1[nH]c2ccc(Br)cc2c1-c1ccccc1	TK-10 renal	no (0)
COc1ccc(C(=O)/C=C/c2ccc3c(c2)OCCO3)cc1S(N)(=O)=O	TK-10 renal	yes (1)
COc1ccc(N=Nc2c(N)nn3c(-c4cc5cc(Br)ccc5oc4=O)ccnc23)cc1	TK-10 renal	yes (1)
O=S(=O)(c1nc(-c2ccc(Br)cc2)oc1-c1ccc(Cl)cc1)N1CCCC(O)C1 (configuration not stated)	TK-10 renal	yes (1)
O=C1/C(=C/c2cnc(-c3ccccc3)s2)SC(=S)N1Cc1ccc2c(c1)OCO2	TK-10 renal	yes (1)
FC(F)(F)c1cc2c(Cl)ncnc2n1CCN1CCCCC1	TK-10 renal	yes (1)
O=C(N=Nc1c(O)[nH]c2ccc(Cl)cc12)c1ccc2nc(-c3ccc(Cl)cc3)[nH]c2c1	TK-10 renal	yes (1)
Cn1cc(-c2cc(N)n3nc(-c4c[nH]c5ccccc45)cc3n2)c2cc(Cl)ccc21	TK-10 renal	no (0)
CCN1CCN(Cc2ccc(C(=O)Nc3cccc(Nc4ccc5c(OC)cccc5n4)c3)cc2C(F)(F)F)CC1	TK-10 renal	no (0)
O=C(N/N=C/c1c[nH]c2ccccc12)Nc1ccc(F)c(Cl)c1	TK-10 renal	yes (1)
Cc1ccc(C(=O)Nc2cc(-n3cnc(F)c3)cc(C(F)(F)F)c2)cc1C#Cc1cnc2cccnn12	TK-10 renal	yes (1)
COc1cc(C=O)ccc1OC(=O)c1cc(-c2ccc(C)cc2)n(-c2ccc(S(C)(=O)=O)cc2)n1	TK-10 renal	yes (1)
O=C(COc1ccc(/C=C2/C(=O)Nc3ccc(Cl)cc32)cc1)Nc1ccc(Br)cc1	TK-10 renal	no (0)
COc1ccc(-c2nc3ccc(-c4nnc(SCC(=O)Nc5ccc(/C(C)=N\O)cc5)o4)cc3[nH]2)cc1	TK-10 renal	yes (1)
CCc1ccccc1-c1nc(CN[C@@H]2C[C@@H]3C[C@H]([C@H]2C)C3(C)C)c(C)o1	TK-10 renal	no (0)
FC(F)(F)CN1CCN(CCn2c(C(F)(F)F)cc3c(Cl)ncnc32)CC1	TK-10 renal	yes (1)
O=C(CSc1nc2ccccc2c(=O)[nH]1)NNC(=O)c1ccccc1Cl	TK-10 renal	yes (1)
Cc1nn(-c2ccccc2)c2nc(C)n(C(=O)N/N=C/c3ccccc3)c(=O)c12	TK-10 renal	yes (1)
CN(C)CCCNC(=S)Nc1ccc(/C=C/c2ccc(Cl)cc2)cc1	TK-10 renal	no (0)
O=C1CCC(N2C(=O)c3cccc(NCCCCCC(=O)N4CCN(c5ccc6nc7c(nc6c5C(F)(F)F)C(=O)c5ncccc5C7=O)CC4)c3C2=O)C(=O)N1 (configuration not stated)	TK-10 renal	no (0)
O=C(c1ccc(O)cc1)C1[C@H](c2ccc(Cl)cc2)[C@@H](c2ccccc2)NC12C(=O)Nc1ccccc12 (some centres not stated)	TK-10 renal	no (0)
